# TESTED_SYSTEM: β-secretase (BACE-1) (Homo sapiens)
# Construct: purchased
# Sequence (P56817 46-501): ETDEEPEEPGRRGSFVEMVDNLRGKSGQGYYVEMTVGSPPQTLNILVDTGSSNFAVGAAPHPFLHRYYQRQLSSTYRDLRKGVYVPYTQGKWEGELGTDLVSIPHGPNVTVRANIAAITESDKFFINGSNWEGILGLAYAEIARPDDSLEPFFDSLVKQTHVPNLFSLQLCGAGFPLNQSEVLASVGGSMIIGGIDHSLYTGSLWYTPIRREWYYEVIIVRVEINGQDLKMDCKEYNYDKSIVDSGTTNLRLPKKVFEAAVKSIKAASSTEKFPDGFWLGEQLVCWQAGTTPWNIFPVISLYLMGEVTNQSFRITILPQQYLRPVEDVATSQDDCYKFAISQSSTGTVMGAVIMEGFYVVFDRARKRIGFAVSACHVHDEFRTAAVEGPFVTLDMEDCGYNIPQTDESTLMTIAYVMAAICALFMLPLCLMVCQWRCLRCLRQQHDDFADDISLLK
# PROCEDURE_DETAILS: BACE-1 inhibition (β-secretase assay kit, fluorescence)
# Assay type: biochemical
# STUDY_CONDITIONS: at 10 µM; read-out: Residual Activity (%) BACE-1
Sorting guide: entries reporting remaining activity at 10 µM beneath 60% go in the Criterion met pile, the rest go in the Criterion not met pile.

Example cases with answers are listed next.
MOLECULE	TESTED_SYSTEM	CLASS_NAME
COc1ccc(C(=O)/C=C/c2ccc(Cl)cc2)c(OC)c1OC [CH4]	β-secretase (BACE-1) (Homo sapiens)	Criterion met
COc1cc(OC)c(C(=O)/C=C/c2ccc(Br)cc2)c(OC)c1 [CH2]	β-secretase (BACE-1) (Homo sapiens)	Criterion met
COc1ccc(C(=O)/C=C/c2ccc(F)cc2)c(OC)c1OC [CH6]	β-secretase (BACE-1) (Homo sapiens)	Criterion not met

Pending molecule:
Problem: Given COc1ccc(C(=O)/C=C/c2ccc(Br)cc2)c(OC)c1OC [CH5] , is recorded remaining activity at 10 µM strictly lower than 60%?
Solution: Criterion not met

Values compiled from paper PMC8226672.
